Each record here notes measured composite z-score.
# Target of assay: Streptavidin (Streptomyces avidinii) (UniProt P22629)
# Sequence (P22629 whole entry, looked up): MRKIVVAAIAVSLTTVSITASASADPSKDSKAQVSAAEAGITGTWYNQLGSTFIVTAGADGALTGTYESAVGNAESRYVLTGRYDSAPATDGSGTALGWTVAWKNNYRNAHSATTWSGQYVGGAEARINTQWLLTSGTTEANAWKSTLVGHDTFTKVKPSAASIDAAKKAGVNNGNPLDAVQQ
# Assay details: compounds binding control protein streptavidin – biophysical, small-molecule microarray, 635/667 nm fluorescence, artefact control for SMM compound annotation, primary screen (AID 1147);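 also: signal reflects streptavidin binding to arrayed compounds as a control protein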
# Experimental setup: higher = more signal
Endpoint: composite z-score

>>> numeric_value("[N-]=[N+]=Nc1ccccc1[C@H]1OC(c2ccc(OCCCO)cc2)=N[C@@]1(Cc1ccccc1)C(=O)N1CCOCC1")
2.01
>>> numeric_value("O=C1C2C=CC(C(O)c3ccc(-c4ccccc4)s3)N(Nc3ccccc3)C2C(=O)N1c1ccccc1 (stereo unspecified)")
0.908
>>> numeric_value("CCCCC(O)C1C=CC2C(=O)N(C)C(=O)C2N1N1CCCCC1 (stereo unspecified)")
0.0223
>>> numeric_value("OCCCC1=CC(C2CC2)N(Cc2cccc(OC(F)(F)F)c2)CC1 (stereo unspecified)")
-0.753
>>> numeric_value("O=C1N(CCS(=O)(=O)c2ccccc2)c2ccccc2[C@@H]2OC(c3ccc(OCCCO)cc3)=N[C@]12Cc1ccccc1")
0.14
>>> numeric_value("CCCCCN1CC=CC23O[C@@H]4C=CCOC(=O)[C@@H]4[C@H]2C(=O)N(C(C)CO)[C@@H]3C1=O (stereo partly specified)")
-0.541
>>> numeric_value("O=C1OCCC=C[C@H]2OC34C=CCN(CCN5CCOCC5)C(=O)[C@H]3N(CCCCCO)C(=O)[C@@H]4C12 (stereo partly specified)")
1.38
>>> numeric_value("CN(C)C(=O)[C@]1(Cc2ccccc2)N=C(c2ccc(OCCCO)cc2)O[C@@H]1c1ccccc1N=[N+]=[N-]")
1.06
>>> numeric_value("CCCNC(=O)[C@@H]1c2ccccc2C(=O)N(Cc2ccccc2OC)[C@H]1c1ccc(CO)cc1")
0.867
>>> numeric_value("COCCOC(=O)N1C(=O)[C@@]2(c3ccccc31)[C@H](C(=O)N1CCCCCCC1)[C@H]1C(=O)O[C@H](c3ccccc3)[C@H](c3ccccc3)N1[C@@H]2c1ccc(OCCO)cc1")
4.29
>>> numeric_value("COC(=O)[C@@]1(Cc2ccccc2)[C@H]2c3cc(C(=O)N(C)C)n(Cc4ccc(OC)c(OC)c4)c3C[C@H]2CN1C(=O)c1ccccc1")
1.43
>>> numeric_value("COc1ccc(CCNC(=O)[C@@]2(c3ccc([N+](=O)[O-])cc3)CC(=O)N(CC34CC5CC(CC(C5)C3)C4)[C@@H]2c2ccc(CO)cc2I)cc1")
-0.0522
>>> numeric_value("CCOC(=O)C[C@H]1[C@H](OC(=O)c2ccc(-c3ccccc3)cc2)[C@@H](NC(=O)c2ccccc2)c2cc(OCCCO)ccc2N1C(=O)c1ccc2ccccc2n1")
0.255
>>> numeric_value("Cc1ccc(C2C3C(=O)CC4C(=O)N(c5ccccc5)C(=O)C4C3CN2S(=O)(=O)c2ccc(C)cc2)cc1 (stereo unspecified)")
0.525
>>> numeric_value("O=C(O)C1N=C(c2ccc(OCCCO)cc2)N(c2ccccc2)O1 (stereo unspecified)")
0.926
>>> numeric_value("COC(=O)C(CC#Cc1ccc2c(c1)[C@]1(C(=O)N2)[C@H](c2ccc(O)cc2)N2[C@H](c3ccccc3)[C@H](c3ccccc3)OC(=O)[C@H]2[C@@H]1C(=O)N1CCN(c2ncccn2)CC1)C(=O)OC")
0.709
